- Test system: BT-549 breast
- method summary: NCI-60 one-dose screen, 48 h (100 = growth as untreated, 0 = no growth, -100 = all killed)
- conditions: 10 µM unless noted
The panel holds about 83,000 compounds, 20% with a hit somewhere; the sample as a whole holds those more often.
Could you please mark rule met for values of growth below 90% and rule not met for values at or above it?

compound=O=C(CCCn1c(=O)c2sc3ccccc3c2n2nnc(-c3ccccc3)c12)NCCc1cnc[nH]1 target_or_test_system="BT-549 breast" cat="rule met"
compound=NC(=O)NC(=O)/C=C/C(=O)OCCCl target_or_test_system="BT-549 breast" cat="rule not met"
compound=COc1ccc(OC)c(/C=C2\Oc3cc(OCCN4CCCC4)ccc3C2=O)c1 target_or_test_system="BT-549 breast" cat="rule not met"
compound=C[C@]12CC[C@@H]3c4cc(O)c(O)cc4CC[C@H]3[C@@H]1CC[C@@H]2O target_or_test_system="BT-549 breast" cat="rule met"
compound="Cc1ccc(C2=NN(c3ccc(S(=O)(=O)NC(=O)NCc4ccccc4)cc3)C(c3ccc(N(C)C)cc3)C2)c(C)c1 (stereo unspecified)" target_or_test_system="BT-549 breast" cat="rule met"
compound=COc1cc(-c2csc(NC(=O)Nc3ccc(Cl)cc3Cl)n2)cc(OC)c1OC target_or_test_system="BT-549 breast" cat="rule met"
compound=COC(=O)c1ccc(C)cc1 target_or_test_system="BT-549 breast" cat="rule not met"
compound=COc1ccc(C(=O)c2cc(OC)c(OC)c(OC)c2)cc1/C=C/C(=O)c1ccc(OC)c(OC)c1 target_or_test_system="BT-549 breast" cat="rule met"
compound=O=C(O)Cc1ccc2c(c1)Cc1cccnc1O2 target_or_test_system="BT-549 breast" cat="rule not met"
compound=COc1ccc2c(c1)NC(=O)CN2c1nc(C)nc2ccccc12 target_or_test_system="BT-549 breast" cat="rule met"
compound="CCC1CCc2nc3sc(C(=O)Nc4ccccc4F)c(N)c3cc2C1 (stereo unspecified)" target_or_test_system="BT-549 breast" cat="rule met"
compound=COc1cc(NS(C)(=O)=O)ccc1Nc1c2ccc([N+](=O)[O-])cc2nc2c(C)cccc12 target_or_test_system="BT-549 breast" cat="rule met"
compound="CCC(C)NCC(=O)O (stereo unspecified)" target_or_test_system="BT-549 breast" cat="rule not met"
compound=COc1ccc(C(=O)c2cc(OC)c(OC)c(OC)c2)cc1/C=C/C(=O)c1ccc(O)cc1 target_or_test_system="BT-549 breast" cat="rule met"
